# Tested on: modified luciferase
# assay_details: Luciferase expression in liver, lung, spleen and femur 6 hours after intravenous administration to mice
# Format: in vivo
# measurement_setup: lung, 6 hours after intravenous 0.5 mpk, mice
measured_endpoint: Total Flux, Lung
Kindly provide the number alone.

Fill in Total Flux, Lung for CCCCCCCCCOC(=O)CCCCCCCN(CCCCCCCC(=O)OC(CCCCCCCC)CCCCCCCC)CCCNC(=S)N(C)C tested with modified luciferase. 2.57E+07

Send back modified luciferase Total Flux, Lung of CCCCCCCCCCCOC(=O)CCCCCN(CCO)CCCCCC(=O)OCCCCCCCCCCC only. 3.85E+04

Recall the reported Total Flux, Lung of CCCCCCCCCOC(=O)CCCCCCCN(CCCCCCCC(=O)OC(CCCCCCCC)CCCCCCCC)CCOC(C)=O when tested on modified luciferase. 2.56E+04

Give Total Flux, Lung; test system modified luciferase; compound CCCCCCCCCOC(=O)CCCCCCCN(CCCCCCCC(=O)OC(CCCCCCCC)CCCCCCCC)CCCNS(C)(=O)=O 6.03E+06

Enter Total Flux, Lung (test system modified luciferase) for CCCCCCCCCOC(=O)CCCCCCCN(CCO)CCCCCCCC(=O)Oc1ccc(CCCCC)c(CCCCC)c1 1.98E+06

Please respond with reported Total Flux, Lung (system modified luciferase) for CCCCCCCCCN(CCCO)CCCCCCCC(=O)OC(CCCCCCCC)CCCCCCCC . 3.95E+07

Print modified luciferase Total Flux, Lung for CCCCCCCCCOC(=O)CCCCCCCN(CCCCCCCC(=O)OC(CCCCCCCC)CCCCCCCC)CCCNC(=S)NC . 5.55E+06

Give measured Total Flux, Lung for CCCCCCCCCCCCCCCCCCN(CCO)CCCCCCCC(=O)OC(CCCCCCCC)CCCCCCCC (modified luciferase). 1.72E+06

Consider the compound CCCCCCCCOP(=O)(OCCCCCCCC)OCCCCCCCN(CCO)CCCCCCCC(=O)OC(C)CCCCCCCC (stereo not drawn) tested on modified luciferase; state its Total Flux, Lung. 1.39E+07

Please indicate recorded Total Flux, Lung of CCCCCCCCC(C)OC(=O)CCCCCCCN(CCO)CCCCCCCOC(=O)C(CCCCCCCC)CCCCCCCC (stereo not drawn) measured with modified luciferase. 2.71E+07

Using modified luciferase as the test system, report measured Total Flux, Lung of CCCCCCCCC(CCCCCCCC)OC(=O)CCCCCCCN(C)CCCCCCCCCCCC(=O)OCCCCC . 2.20E+06

Give Total Flux, Lung only, for CCCCCCCCCOC(=O)CCCCCCCN(CCO)CCCCCCCC(=O)OC(CCC)CCC , using modified luciferase data. 1.21E+04

Report Total Flux, Lung on modified luciferase for this entry: CCCCCCCCCOC(=O)CCCCCCCN(CCO)CCCCCCC(=O)OCC(CCCCCCCC)CCCCCCCC 3.60E+07

State Total Flux, Lung (modified luciferase) of CCCCCCCCCOC(=O)CCCCCCCN(CCCCCCCC(=O)OC(CCCCCCCC)CCCCCCCC)CC(O)CO (stereo not drawn) . 7.34E+05

Consider the compound CCCCCCCCC(CC)OC(=O)CCCCCCCN(CCO)CCCCCCCC(=O)OC(CCCCCCCC)CCCCCCCC (stereo not drawn) tested on modified luciferase; state its Total Flux, Lung. 2.52E+07

Provide measured Total Flux, Lung on modified luciferase for CCCCCCCCCCCOC(=O)CCCCCN(CCO)CCCCCCCC(=O)N(CCCCCCCC)CCCCCCCC please. 9.89E+06

Recall the reported Total Flux, Lung of CCCCCCCCCC(=O)OCCCCCCCN(CCO)CCCCCCCOC(=O)C(CCCCCCCC)CCCCCCCC on modified luciferase and write it down. 9.20E+06

Lab note: modified luciferase assay, enter Total Flux, Lung for CCCCCCCCC(C)OC(=O)CCCCCN(CCO)CCCCCCCC(=O)OC(CCCCCCCC)CCCCCCCC (stereo not drawn) here 2.77E+07

// fetch Total Flux, Lung; item: CCCCCCCCCOC(=O)CCCCCCCN(CCO)CCCCCCCC(=O)OC(C)CCCCCCCC (stereo not drawn) ; system: modified luciferase 5.82E+05

# lookup: modified luciferase Total Flux, Lung, key = CCCCCCCCC(CCCCCCCC)OC(=O)CCCCCCCN(CCO)CCCCCC(=O)OC1CCC(CCCCC)CC1 (stereo not drawn) 3.98E+07

For modified luciferase, give Total Flux, Lung of the listed compound: CCCCCCCCC(CCCCCCCC)OC(=O)CCCCCCCN(C)CCCCCCCCCC(=O)OCCCCCCC 2.69E+06

Using modified luciferase as the test system, report measured Total Flux, Lung of CCCCCCCCCOC(=O)CCCCCCCN(CCO)CCCCCCCOC(=O)C(CCCCCCCC)CCCCCCCC . 1.02E+07

Fill in: Total Flux, Lung on modified luciferase, entry CCCCCC/C=C\COC(=O)CCCCCCCN(CCO)CCCCCCCC(=O)OC(CCCCCCCC)CCCCCCCC 1.71E+07

Jot down Total Flux, Lung (modified luciferase) of CCCCCCCCC(CCCCCCCC)OC(=O)CCCCCCCN(CCO)CCCC(=O)OC1CCC(CCCCC)CC1 (stereo not drawn) . 1.68E+07

Provide the reported Total Flux, Lung (system: modified luciferase) for CCCCCCCC/C=C\COC(=O)CCCCCN(CCO)CCCCCC(=O)OC/C=C\CCCCCCCC 2.14E+04

For modified luciferase, give Total Flux, Lung of the listed compound: CCCCCCCCCN(CCCCCCCC(=O)OC(CCCCCCCC)CCCCCCCC)CCCn1ccnc1 4.06E+06

# return Total Flux, Lung of CCCCCCCCC(CCCCCCCC)OC(=O)CCCCCCCN(CCO)CCCCCCCC(=O)OC(CCCCCCCC)C1CC1 (stereo not drawn) (system: modified luciferase) 3.79E+07

Supply Total Flux, Lung measured with modified luciferase for CCCCCCCCCOC(=O)CCCCCCCN(CCCCCCCC(=O)OC(CCCCCCCC)CCCCCCCC)CCCOC . 4.18E+05

Please report Total Flux, Lung with modified luciferase for item CCCCCCCCCOC(=O)CCCCCCCN(CCCCCCCC(=O)OC(CCCCCCCC)CCCCCCCC)CCCNC(C)=O . 9.81E+06

Please tell me the measured Total Flux, Lung for CCCCCCCC/C=C\CCCCCCCCN(CCO)CCCCCCCC(=O)OC(CCCCCCCC)CCCCCCCC ; system: modified luciferase. 7.55E+06
